Where do these numbers come from? They come from PubChem BioAssay (NCI).

# GI50 listing for each entry below
test system: IGROV1 ovarian; assay: NCI tumour cell line growth inhibition, 48 h

INSERT INTO results (compound, target_of_assay, observed_result) VALUES
  ('CCOC(=O)c1cc(C(=O)c2ccc(OC)c(OC)c2)n2c1ccc1ccc3cccnc3c12', 'IGROV1 ovarian', '2330 nM'),
  ('Cc1ccccc1Nc1cc(O)c2c(=O)cc(-c3ccccc3)oc2c1', 'IGROV1 ovarian', '3200 nM'),
  ('O=C(Nc1nc2ccc(S(=O)(=O)Nc3ccc(C4(C(F)(F)F)CC4)cc3)cc2[nH]1)c1cnccn1', 'IGROV1 ovarian', '1900 nM'),
  ('O=C(Nc1ccc(-n2cc(-c3ccncc3)c(-c3ccc(Cl)c(O)c3)n2)cc1)c1cc(C(F)(F)F)cc(C(F)(F)F)c1', 'IGROV1 ovarian', '11500 nM'),
  ('N#Cc1cc(F)cc(Oc2ccc(S(=O)(=O)C(F)F)c3c2CC(F)(F)[C@H]3O)c1', 'IGROV1 ovarian', '37400 nM'),
  ('CN(C)C1C(=O)C(C(N)=O)=C(O)C2(O)C(=O)C3=C(O)c4c(O)cccc4C(C)(O)C3CC12.[Cl][Sb]([Cl])[Cl] (centres undefined)', 'IGROV1 ovarian', '2960 nM');

Asked: Write down measured GI50 (IGROV1 ovarian) for this compound. Nc1nc(Cl)c2ncn(Cc3ccc(C45CC6CC(CC(C6)C4)C5)c(OCc4cc(F)c(F)cc4F)c3)c2n1
Given back: 2770 nM

Asked: Look up and report measured GI50 (IGROV1 ovarian) for the following compound: CN(C)CCCOc1ccc(NC2=C(Cl)C(=O)C(Nc3ccc(OCCCN(C)C)cc3)=C(Cl)C2=O)cc1
Given back: 544 nM

Asked: Provide the reported GI50 (system: IGROV1 ovarian) for OCC1OC(OC2(CO)OC(CO)C(O)C2O)C(O)C(O)C1O (centres undefined)
Given back: > 100000 nM

====

test system: ACHN renal; experiment: NCI tumour cell line growth inhibition, 48 h
measured-parameter: TGI

INSERT INTO assay_data (compound, observed_result) VALUES
  ('CC(=O)CCC1(C(=O)OCC(C)C)CCCC1=O (stereo unspecified)', '> 100 µM'),
  ('O=C(Nc1nc(=S)[nH][nH]1)C(=O)C(c1cnc2ccc([N+](=O)[O-])cc2n1)[N+](=O)[O-] (stereo unspecified)', '> 100 µM'),
  ('CC1(C)C(=O)/C(=C/c2ccccc2)C(C)(C)C1(C)C', '> 100 µM'),
  ('OCc1ccc(-c2ccc(-c3ccc(CO)o3)o2)o1', '> 100 µM'),
  ('COc1cc2c(cc1O)NC(=O)[C@@H]1C[C@@H](O)CN1C2=O', '> 100 µM');

Asked: Give TGI for the following compound: CCN1C(=O)N(CC)C2C1NC(=S)N2/N=C/C=C/c1ccccc1 (stereo unspecified)
Given back: > 100 µM

Asked: Answer with reported TGI of C=C1C(=O)O[C@@H]2C[C@@]3(C)[C@H](O)CCC(=C)[C@@H]3C[C@H]12
Given back: 27.8 µM

Asked: State, in one line, measured TGI of C[n+]1c2ccccc2n2c3ccccc3c(NCCCn3ccnc3)c(C#N)c21
Given back: > 27.7 µM

Asked: Complete the entry with TGI for O=c1[nH]ncc2[nH]c3c(c12)CCc1ccccc1-3
Given back: > 100 µM

Asked: Provide only the value of recorded TGI for COc1cc(C=O)cc(C=Nc2ccc(Br)cc2)c1O
Given back: 49.4 µM
